Test system: HBV rcDNA
Assay: HepDE19 assay with bDNA quantitation of HBV rcDNA
Type: cell-based, hepatitis B virus
Conditions: HepDE19 assay, inhibition of formation of relaxed circular DNA (rcDNA), bDNA quantitation; read-out: DE-19bDNA EC50
Recorded endpoint: log10(EC50) (log10 of the value in µM)
In our notation, the value equals log10 of EC50 in µM.

Use these answered entries as a reference point.
CC(c1c[nH]c(=O)c2cc(F)c(F)cc12)N(C)C(=O)Nc1ccc(F)cc1 (single isomer, unassigned) [Compound 285] = 0.63
CC(C)CN(C(=O)Nc1ccc(F)c(Cl)c1)C(C)c1cn(C)c(=O)c2cc(F)c(F)cc12 (single isomer, unassigned) [Compound 343] = -2.22
CC(c1cn(C)c(=O)c2c(F)cccc12)N(C)C(=O)Nc1ccc(F)c(Cl)c1 (single isomer, unassigned) [Compound 358] = 0.77

Q: What does the record list as log10(EC50) for CC(c1cn(C)c(=O)c2c(F)cccc12)N(C)C(=O)Nc1ccc(F)c(Cl)c1 (single isomer, unassigned) [Compound 359] ?
Result: -1.64

Q: Which value of log10(EC50) has been reported for CC(c1c[nH]c(=O)c2c(F)cc(F)cc12)N(CCS(N)(=O)=O)C(=O)Nc1ccc(F)c(Cl)c1 (single isomer, unassigned) [Compound 390] in the records?
Result: -1.77

Q: Give its log10(EC50) value. Item: CC(c1c[nH]c(=O)c2c(F)c(F)ccc12)N(C)C(=O)NCc1cc(F)c(F)c(F)c1 (single isomer, unassigned) [Compound 494]
Result: -0.05

----------
# EC50 listing for each entry below
Tested on: HBV rcDNA
Test: HepDE19 assay with bDNA quantitation of HBV rcDNA
Assay type: cell-based, hepatitis B virus
Conditions: HepDE19 assay, inhibition of formation of relaxed circular DNA (rcDNA), bDNA quantitation; read-out: DE-19bDNA EC50
Description: HepDE19 Assay with bDNA Quantitation of HBV rcDNA: HepDE19 cell culture system is a HepG2 (human hepatocarcinoma) derived cell line that supports HBV DNA replication and cccDNA formation in a tetracycline (Tet)-regulated manner and produces HBV rcDNA and a detectable reporter molecule dependent on the production and maintenance of cccDNA (Guo, et al., 2007, J. Virol. 81:12472-12484). […]
Report only the number, with the unit nM understood.

Record excerpt, results attached:
CC(c1c[nH]c(=O)c2c(F)c(F)ccc12)N(C)C(=O)Nc1ccc2cc[nH]c2c1 (single isomer, unassigned) [Compound 498] = 11000
CC(c1c[nH]c(=O)c2c(F)cccc12)N(C)C(=O)Nc1ccc(F)c(Cl)c1 (single isomer, unassigned) [Compound 356] = 1900
CC(c1cn(C)c(=O)c2c(F)c(F)ccc12)N(C)C(=O)Nc1ccc(F)c(Cl)c1 (single isomer, unassigned) [Compound 333] = 13
CNC(=O)c1ncc(C(C)N(C)C(=O)Nc2ccc(F)c(Cl)c2)c2ccccc12 (single isomer, unassigned) [Compound 317] = 77
CC(c1c[nH]c(=O)c2c(F)cc(F)cc12)N(C)C(=O)Nc1ccc(F)c(Cl)c1 (single isomer, unassigned) [Compound 368] = 2500

Q: Given the compound CCN(C(=O)Nc1ccc(F)c(F)c1)C(C)c1c[nH]c(=O)c2c(F)c(F)ccc12 (single isomer, unassigned) [Compound 463] , what is its reported EC50?
Result: 8
